Biological target: angiogenin (ANG) (Homo sapiens, UniProt P03950)
Sequence (P03950 25-147): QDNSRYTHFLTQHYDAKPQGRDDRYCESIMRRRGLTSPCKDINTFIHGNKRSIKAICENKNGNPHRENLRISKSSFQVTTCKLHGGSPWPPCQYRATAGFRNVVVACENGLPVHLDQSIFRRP
Assay: Inhibition of ANG ribonucleolytic activity, HPLC assay of oligonucleotide cleavage
Assay type: biochemical
Details: read-out: KI

Smiles Notation | Units Of Measure | Ki
O=[N+]([O-])c1ccc(/N=N/c2c(O)c(/N=N/c3cc([N+](=O)[O-])cc([N+](=O)[O-])c3O)cc(/N=N/c3cc(S(=O)(=O)O)cc4cc(S(=O)(=O)O)cc(O)c34)c2O)cc1 | µM | 15
COc1ccc(/C=N/c2c(O)ccc3ccccc23)cc1OC | µM | 900
Nc1ccc2cc(S(=O)(=O)O)cc(O)c2c1/N=N/c1ccc(-c2ccc(/N=N/c3c(S(=O)(=O)O)cc4cc(S(=O)(=O)O)c(/N=N/c5ccc([N+](=O)[O-])cc5)c(N)c4c3O)cc2)cc1 | µM | 129
Cc1cc(-c2ccc(/N=N/c3c(N)c(S(=O)(=O)O)cc4cc(S(=O)(=O)O)ccc34)c(C)c2)ccc1/N=N/c1c(N)ccc2cc(S(=O)(=O)O)ccc12 | µM | 5.5
O=S(=O)(O)c1ccc2c(/N=N/c3ccc(S(=O)(=O)O)c4ccccc34)c(O)c(S(=O)(=O)O)cc2c1 | µM | 60
O=S(=O)(O)c1ccc(/N=N/c2ccc(/N=N/c3c(O)ccc4cc(S(=O)(=O)O)ccc34)cc2)cc1 | µM | 36
COc1cc(-c2ccc(/N=N/c3ccc4c(S(=O)(=O)O)cc(S(=O)(=O)O)c(N)c4c3O)c(OC)c2)ccc1/N=N/c1ccc2c(S(=O)(=O)O)cc(S(=O)(=O)O)c(N)c2c1O | µM | 5
O=[N+]([O-])c1cc(/N=N/c2c(O)ccc3cc(S(=O)(=O)O)ccc23)c(O)c([N+](=O)[O-])c1 | µM | 25
O=[N+]([O-])c1ccc(/N=N/c2c(O)c(S(=O)(=O)O)cc3cc(S(=O)(=O)O)ccc23)cc1 | µM | 307
Nc1ccc2c(O)c(/N=N/c3ccc(-c4ccc(/N=N/c5c(S(=O)(=O)O)cc6cc(S(=O)(=O)O)c(/N=N/c7cc(Cl)ccc7Cl)c(N)c6c5O)cc4)cc3)c(S(=O)(=O)O)cc2c1 | µM | 195
O=S(=O)(O)c1ccc(/N=N/c2c(O)ccc3cc(S(=O)(=O)O)ccc23)cc1 | µM | 85
Cc1ccc(/N=N/c2c(O)ccc3cc(S(=O)(=O)O)ccc23)cc1 | µM | 175

----------
Target: angiogenin (ANG) (Homo sapiens)
Assay: Inhibition of ANG ribonucleolytic activity, HPLC assay of oligonucleotide cleavage
Assay type: biochemical
Details: read-out: KI
pKi: −log10 of the molar value.
Class 1 (yes): pKi at least 4. Class 0 (no): pKi below 4.

Smiles Notation | Classification
CC(=O)Nc1ccc(/N=N/c2c(N)ccc3cc(S(=O)(=O)O)cc(O)c23)c(S(=O)(=O)O)c1 | 1 (yes)
O=S(=O)(O)c1cc(/N=N/c2c(O)ccc3ccccc23)c2c(O)c(/N=N/c3ccc(S(=O)(=O)O)c4ccccc34)c(S(=O)(=O)O)cc2c1 | 0 (no)
Nc1cc(S(=O)(=O)O)cc2cc(S(=O)(=O)O)c(/N=N/c3ccc([N+](=O)[O-])cc3)c(O)c12 | 0 (no)
Nc1ccc(/N=N/c2ccc(-c3ccc(/N=N/c4ccc(N)c5cc(S(=O)(=O)O)ccc45)cc3)cc2)c2ccc(S(=O)(=O)O)cc12 | 1 (yes)
